# assay-details: Efflux ratio of apparent permeability in MDCK-MDR1 cells at 10 uM measured at 60 mins by LC-MS/MS analysis
# Assay type: ADME, cell-based, Canis lupus familiaris
# recorded-conditions: dog, MDCK-MDR1
experimental-readout: efflux ratio at 1 h, 10 µM
Would you mind answering with just the numeric figure?

Solved entries (count: 3):
compound	efflux ratio at 1 h, 10 µM
NCc1ccc2c(c1)nc(CN1C(=O)C3(CC3)c3cccc(F)c31)n2CCCC(F)(F)F	7.5
CS(=O)(=O)CCCn1c(CN2C(=O)C3(CC3)c3ccc(F)cc32)nc2cc(CN)ccc21	3.26
NCc1ccc2c(c1)nc(CN1C(=O)C3(CC3)c3ccc(F)cc31)n2C1CCOCC1	94

// moving on: another record for efflux ratio at 1 h, 10 µM
Please supply the value of reported efflux ratio at 1 h, 10 µM for the item NCc1ccc2c(c1)nc(CN1C(=O)C3(CC3)c3ccc(F)cc31)n2C1CCC(O)CC1 (centres undefined)
21

Data origin: ChEMBL document CHEMBL4825662
